Target: T1, GIP Receptor (Homo sapiens, UniProt P48546)
T1 construct: host or cells: HEK293T
T1 sequence (P48546 22-466): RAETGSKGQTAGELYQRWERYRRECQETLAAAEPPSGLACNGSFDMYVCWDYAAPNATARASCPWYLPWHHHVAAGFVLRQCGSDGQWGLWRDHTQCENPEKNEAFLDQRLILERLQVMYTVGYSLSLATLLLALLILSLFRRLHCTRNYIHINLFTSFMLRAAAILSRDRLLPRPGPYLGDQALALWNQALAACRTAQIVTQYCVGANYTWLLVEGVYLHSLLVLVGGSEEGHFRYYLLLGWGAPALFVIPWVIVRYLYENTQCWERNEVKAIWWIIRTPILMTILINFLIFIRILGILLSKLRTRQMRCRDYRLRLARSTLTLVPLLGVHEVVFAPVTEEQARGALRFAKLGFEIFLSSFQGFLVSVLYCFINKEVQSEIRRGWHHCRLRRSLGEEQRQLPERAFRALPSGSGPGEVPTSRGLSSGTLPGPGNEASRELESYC
Assay: GIP receptor-mediated bioluminescence in HEK293T cells with chimeric promiscuous G protein (FIG. 5, Table II)
Format: cell-based
Conditions: signal induced by maximal GIP (1 μM) divided by signal induced by buffer alone
Measured Signal: background with GIP of individual entries
property: Signal: background with GIP

molecule	quantitative-readout
Mt-clytin K168Q: Mitochondrial K168Q modified Clytin, SEQ ID NO:20 (protein) MSVLTPLLLRGLTGSARRLPVPRAKIHSLPPEGKLRPNFDNPKWVNRHKFMFNFLDINGDGKITLDEIVSKASDDICAKLGATPEQTKRHQDAVEAFFKKIGMDYGKEVEFPAFVDGWKELANYDLKLWSQNKKSLIRDWGEAVFDIFDKDGSGSISLDEWKAYGRISGICSSDEDAEKTFKHCDLDNSGQLDVDEMTRQHLGFWYTLDPNADGLYGNFVP	125.8
Cyto-obelin: Wild-type Obelin (wt-Obelin) amino acid sequence, SEQ ID NO:4; cytosolic (protein, listed as Obelia longissima) MSSKYAVKLKTDFDNPRWIKRHKHMFDFLDINGNGKITLDEIVSKASDDICAKLEATPEQTKRHQVCVEAFFRGCGMEYGKEIAFPQFLDGWKQLATSELKKWARNEPTLIREWGDAVFDIFDKDGSGTITLDEWKAYGKISGISPSQEDCEATFRHCDLDNSGDLDVDEMTRQHLGFWYTLDPEADGLYGNGVP	47
